Items are presented alongside their recorded inhibition.
# measurement-target: ATP-binding cassette sub-family B member 6 (Homo sapiens)
# test-summary: blockers of ABCB6-driven porphyrin uptake – K562-ABCB6 cells, flow cytometry, validation set, pilot screen (AID 588550);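 note: 0% = DMSO wells and 100% = benzethonium chloride 70 µM positive control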
# experimental-context: K562-ABCB6 porphyrin accumulation, 1 h, at 10 µM, active compounds read high
Activity calls are given as the source filed them.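 Rule for the calls: active = inhibition above the screen-wide mean plus 3 SD, about 51%; inactive = the rest.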
measurement-kind: inhibition

| compound | result |
| --- | --- |
| NC(N)=N/N=C/c1cccc(Cl)c1Cl | 4% (inactive) |
| O=C(NCCc1c[nH]c2ccccc12)c1cccnc1 | 6% (inactive) |
| O=C(NCCO)c1ccc2[nH]c3ccccc3c2c1 | -1% (inactive) |
| Cc1occc(=O)c1O | 3% (inactive) |
| COc1ccc2[nH]cc(C3N4CC5(C)CN3CC(C)(C4)C5=O)c2c1 (stereo unspecified) | 2% (inactive) |
| Cc1nnc(NS(=O)(=O)c2ccc(N)cc2)s1 | 14% (inactive) |
| O=C(CC(NC(=O)OCc1ccccc1)C(=O)O)OCc1ccccc1 (stereo unspecified) | 22% (inactive) |
| CN(CCO)CC(O)Cn1cnc2c1c(=O)n(C)c(=O)n2C (stereo unspecified) (tested in a mixture with another compound) | 7% (inactive) |
| COc1ccccc1/C=C/CN1CCN(Cc2ccc(F)cc2)C(CCO)C1 (stereo unspecified) | 8% (inactive) |
| COc1ccc(C2OC(=O)Cc3cc(OC)c(OC)cc32)cc1 (stereo unspecified) | 7% (inactive) |
| CCN1C(=O)C(CC(=O)Nc2ccc(OC)cc2)N(CCc2ccc(F)cc2)C1=S (stereo unspecified) | 3% (inactive) |

----------
# measurement-target: AP-2 complex subunit beta (Homo sapiens)
# test-summary: beta-arrestin/AP2 interaction blockers – biochemical, validation set, GST-AP2 beads, flow cytometry, pilot screen (AID 504541);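 note: AP2 carries R879A mutation and is captured from E. coli lysate; bead-bound FITC arrestin peptide fluorescence measuring arrestin peptide binding to AP2; 0% = DMSO wells and 100% = excess unlabeled arrestin peptide control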
# experimental-context: FITC arrestin peptide, at 10 µM, active compounds read high, AP2 beta2 appendage fragment, R879A mutant
measurement-kind: inhibition (%)

| compound | measurement-kind | numeric-result |
| --- | --- | --- |
| CCCN1CCC(NC(=O)Nc2ccc(Br)cc2)CC1 | inhibition | -13.3 |
| COc1cc(C2Nc3ccccc3NC3=C2C(=O)CC(c2ccc(OC)c(OC)c2)C3)ccc1O (centres undefined) | inhibition | -8.83 |
| CC12CN3CC(C)(CN(C1)C3c1ccc(Cl)cc1Cl)C2=O (centres undefined) | inhibition | -0.61 |
| OCCC1CN(Cc2ccccc2-c2ccco2)CCN1C1CCCC1 (centres undefined) | inhibition | -16.3 |
| CCCNCC(O)COc1ccccc1C(=O)CCc1ccccc1 (centres undefined) | inhibition | -4.07 |
| COc1ccc(CCN2C(=O)CSC2c2ccc(OC)c(OC)c2)cc1OC (centres undefined) | inhibition | 8.66 |
| O=C(O)c1cnccn1 | inhibition | -5 |
| Cc1ccc2nc(NC3=NC(CC(=O)O)C(=O)N3)nc(C)c2c1 (centres undefined) | inhibition | 8.29 |
| COC(=O)c1ccc(OCCCCN2CC(C)OC(C)C2)cc1 (centres undefined) | inhibition | -5.73 |
| Cc1cc(O)c(C(=O)Cc2csc(C)n2)c(O)c1 | inhibition | 6.62 |
| CC(C)C12CN3CC(C(C)C)(CN(C1)C3c1ccccc1)C2O (centres undefined) | inhibition | 8.13 |
| CCOc1ccc(C(=O)NC(C)C2COc3ccccc3O2)cc1 (centres undefined) | inhibition | -0.3 |
| COc1ccccc1Oc1c(C)oc2c(CN3CCN(CCO)CC3)c(O)ccc2c1=O | inhibition | -2.65 |
| COc1ccc2[nH]c3c(=O)n(/N=C/[C@H]4C(C)C=C(C)CC4C)c(=O)[nH]c3c2c1 (some centres undefined) | inhibition | 32.4 |
| COc1cc(C(=O)NCCCCCC(=O)O)cc(OC)c1OC | inhibition | -5.4 |
| Cc1cccc2c1CC(C)(C)N/C2=C\C(N)=O | inhibition | 10.1 |
| COc1ccccc1NC(=O)C12CCC(C)(C(=O)C1)C2(C)C (centres undefined) | inhibition | 15.9 |
| CC(C)COC(=O)C1C(=O)CC(C)(O)C(C(=O)OCC(C)C)C1c1cccnc1 (centres undefined) | inhibition | 2.38 |
| CCNC(=O)C(Cc1ccccc1)NC(=O)OCc1ccccc1 (centres undefined) | inhibition | 1.34 |
| COc1ccc(-c2[nH]ncc2CN(CCO)Cc2cccs2)c(F)c1 | inhibition | 53.1 |
| CC(C)c1cc(=O)oc2c3c4c(cc12)CCCN4CCC3 | inhibition | -43.1 |
| Cc1ccc(/C(=C\CN2CCCC2)c2ccccn2)cc1 | inhibition | -9.23 |
| O=c1cc(-c2ccccc2)oc2cc(OCc3ccccc3)cc(O)c12 | inhibition | 30.1 |
| O=c1[nH]c(=O)n([C@H]2C[C@H](O)[C@@H](CO)O2)cc1C(F)(F)F | inhibition | 13.9 |

----------
# test-summary: Nile Red efflux blockade in pump-expressing yeast – validation compound set, multiplex, phenotypic, pilot screen (AID 588506);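 note: Nile Red retained in cells so higher fluorescence means more efflux inhibition; 0 = negative control wells and 1 = enniatin B 25 µM full block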
# experimental-context: S. cerevisiae pump-expressing triplex, Nile Red efflux flow cytometry; at 10 µM; active compounds read high; the pumps come from Candida albicans
measurement-kind: efflux inhibition (fraction of control)

| compound | numeric-result |
| --- | --- |
| CC1(C)C(=O)OC(/C=C\c2ccccc2)C(C)(C)C1=O (configuration not stated) | -0.09 |
| c1ccc2c(c1)CCOC2CNCCCN1CCCCC1 (configuration not stated) | 0.01 |
| C=CC1=C(C(=O)O)N2C(=O)C(NC(=O)Cc3ccccc3)C2SC1 (configuration not stated) | 0.01 |
| O=C(NO)c1ccccc1O | 0.03 |
| COc1cc2c3c(c1)C(C)CC(C)(C)N3C(=O)C2=O (configuration not stated) | 0.37 |
| COC(=O)c1cc(OC)c(OC)cc1NC(=O)CN1C(=O)c2ccccc2C1=O | -0.03 |
| O=c1nc2n(c3c1oc1ccccc13)Cc1ccccc1-2 | -0.3 |
| O=C(Cc1c[nH]c2ccccc12)OCCOC(=O)Cc1c[nH]c2ccccc12 | -0.12 |
| COc1ccc(-c2nc3c(=O)n(C)c(=O)[nH]c3n2CCc2ccccc2)cc1 | -0.13 |
| CCOc1ccc2ccccc2c1CNc1nnnn1C | 0.05 |
| CC(=O)Oc1c2occc2cc2ccc(=O)oc12 | 0.51 |
| CSCC[C@H](NC(=O)Nc1ccc(C)cc1C)C(=O)O | -0.17 |

----------
# test-summary: TOR pathway GLN3 branch reporter MEP2-GFP changes – S. cerevisiae, multiplex flow cytometry, primary screen (AID 1867);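 note: median GFP channel fluorescence of barcode-gated MEP2-GFP cells measured by flow cytometry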
# experimental-context: S. cerevisiae MEP2-GFP strain, 3 h, at 10 µM, active compounds read high, 100% means same as DMSO wells
Inconclusive results are not listed.
Items are presented alongside their recorded GFP response vs DMSO.

| compound | result-units | GFP response vs DMSO |
| --- | --- | --- |
| Cn1c([N+](=O)[O-])cnc1COC(N)=O | % | 136 |
| Cn1c(=O)[nH]c(=O)c2c1nc(NCc1ccco1)n2CCCc1ccccc1 | % | 101 |
| Nc1cc(-c2ccncc2)c[nH]c1=O | % | 103 |
| CC(C)c1ccc(NC(=O)CNS(=O)(=O)c2ccc(F)cc2)cc1 | % | 107 |
| Cc1ccc2c(c1)C(C)(C)[C@]1(C)NC(=O)CCN21 | % | 109 |
| COc1cc(C)nc(-n2nc(C)cc2OC)n1 | % | 103 |
| CC(C)CC(=O)NC(NC(=O)CC(C)C)c1cccc([N+](=O)[O-])c1 | % | 102 |
| COc1ccccc1N=CC1=C(O)CC(c2ccccc2)CC1=O (stereo not given) | % | 111 |
| CC(C)C(=O)Nc1ccc2c3c(cccc13)CC2 | % | 98.5 |
| Cc1cccc(-n2c(Cc3ccccc3)n[nH]c2=S)c1 | % | 106 |
| CC(=O)Oc1cc2oc(=O)cc(C)c2cc1OC(C)=O | % | 102 |
| CC(=O)N1c2ccccc2C(C)=CC1(C)C | % | 107 |
| C=CC1=C(C(=O)O)N2C(=O)C(NC(=O)Cc3ccccc3)C2SC1 (stereo not given) | % | 103 |
| C#C[C@]1(O)CC[C@H]2[C@@H]3CCc4cc(O)ccc4[C@H]3CC[C@@]21C | % | 109 |
| COc1ccc(-c2nnc(-c3cc4c(ccc5ccccc54)oc3=O)o2)cc1 | % | 93 |
| COc1cc(CNCCc2c[nH]c3ccccc23)cc(Cl)c1OCC(N)=O | % | 97.4 |
| COC(=O)CSc1nc2ccc(N)cc2s1 | % | 103 |
| S=C(NCCOCCOCCNC(=S)Nc1ccccc1)Nc1ccccc1 | % | 103 |
| COc1cc(C(=O)NCCCCCC(=O)O)cc(OC)c1OC | % | 105 |
| O=C(COc1ccc(F)cc1)OCCN1CCOCC1 | % | 95.1 |
| O=c1[nH]cc(F)c(=O)[nH]1 | % | 119 |
| N/C(=N\OC(=O)CCCOc1ccc(Cl)cc1Cl)c1ccccn1 | % | 110 |
| Cc1cccc2c1CC(C)(C)N/C2=C\C(N)=O | % | 102 |
| Cc1cccc(OCC(=O)Nc2ccc(C(=O)NCC(C)C)cc2)c1 | % | 102 |
| CC1CCc2cc(F)cc3c(=O)c(C(=O)O)cn1c23 (stereo not given) | % | 111 |
